Test system: HIV-1NL4-3
methodSummary: p24 Gag production inhibition in MT-4 cells, wild-type laboratory strain
Format: cell-based
testSettings: Human immunodeficiency virus 1, MT4, read-out: EC50 HIV-1NL4-3
endpoint: EC50 (nM)

compound | endpoint | resultValue
CC(C)CN(C[C@@H](O)[C@H](Cc1ccccc1)NC(=O)O[C@H]1CO[C@H]2OCC[C@H]21)S(=O)(=O)c1ccc(N)cc1 [DRV, darunavir] | EC50 | 4
CC(C)(C)NC(=O)[C@@H]1C[C@@H]2CCCC[C@@H]2CN1C[C@@H](O)[C@H](Cc1ccccc1)NC(=O)[C@H](CC(N)=O)NC(=O)c1ccc2ccccc2n1 [SQV, Saquinavir] | EC50 | 37
COC(=O)N[C@H](C(=O)N[C@@H](Cc1ccccc1)[C@@H](O)CN(Cc1ccc(-c2ccccn2)cc1)NC(=O)[C@@H](NC(=O)OC)C(C)(C)C)C(C)(C)C [ATV, Atazanavir] | EC50 | 4.7

====

methodSummary: Apparent BBB permeability coefficient, in vitro BBB model (BBB Kit)
testSettings: rat and monkey
# Papp at 30 min, 100 μM per entry
endpoint: Papp at 30 min, 100 μM (×10⁻⁶ cm/s)

molecule | resultValue
Cn1c(=O)c2c(ncn2C)n(C)c1=O | 100
CC(C)CN(C[C@@H](O)[C@H](Cc1ccccc1)NC(=O)O[C@H]1CO[C@H]2OCC[C@H]21)S(=O)(=O)c1ccc(N)cc1 | 9.9

====

Test system: HIV-1MDR/G
methodSummary: microbe, parasite or virus in culture
Type: cell-based
testSettings: Human immunodeficiency virus 1, read-out: EC50 HIV-1MDR/G (X4)

compound | EC50 / nM
CC(C)(C)NC(=O)[C@@H]1C[C@@H]2CCCC[C@@H]2CN1C[C@@H](O)[C@H](Cc1ccccc1)NC(=O)[C@H](CC(N)=O)NC(=O)c1ccc2ccccc2n1 [SQV, Saquinavir] | 39
CC(C)CN(C[C@@H](O)[C@H](Cc1ccccc1)NC(=O)O[C@H]1CO[C@H]2OCC(F)(F)[C@H]21)S(=O)(=O)c1ccc(N)cc1 [GRL-05010] | 4
CC(C)CN(C[C@@H](O)[C@H](Cc1ccccc1)NC(=O)O[C@H]1CCOC1)S(=O)(=O)c1ccc(N)cc1 [APV, Amprenavir] | 310
COC(=O)N[C@H](C(=O)N[C@@H](Cc1ccccc1)[C@@H](O)CN(Cc1ccc(-c2ccccn2)cc1)NC(=O)[C@@H](NC(=O)OC)C(C)(C)C)C(C)(C)C [ATV, Atazanavir] | 42
CC(C)CN(C[C@@H](O)[C@H](Cc1ccccc1)NC(=O)O[C@H]1CO[C@H]2OCC[C@H]21)S(=O)(=O)c1ccc(N)cc1 [DRV, darunavir] | 14
COc1ccc(S(=O)(=O)N(CC(C)C)C[C@@H](O)[C@H](Cc2ccccc2)NC(=O)OC2CO[C@H]3OCC(F)(F)[C@@H]23)cc1 (stereo partly drawn) [GRL-04810] | 4

====

Recorded Selectivity Index, one value per entry.
Test system: HIV-1LAI
methodSummary: Drug susceptibility MTT assay, MT-2 cells exposed to HIV-1LAI
Format: cell-based
testSettings: ratio of CC50 to EC50 against HIV-1LAI
endpoint: Selectivity Index

compound | assayedSystem | endpoint | resultValue
COc1ccc(S(=O)(=O)N(CC(C)C)C[C@@H](O)[C@H](Cc2ccccc2)NC(=O)OC2CO[C@H]3OCC(F)(F)[C@@H]23)cc1 (stereo partly shown) [GRL-04810] | HIV-1LAI | Selectivity Index | 21,875
CC(C)(C)NC(=O)[C@@H]1C[C@@H]2CCCC[C@@H]2CN1C[C@@H](O)[C@H](Cc1ccccc1)NC(=O)[C@H](CC(N)=O)NC(=O)c1ccc2ccccc2n1 [SQV, Saquinavir] | HIV-1LAI | Selectivity Index | 843
CC(C)CN(C[C@@H](O)[C@H](Cc1ccccc1)NC(=O)O[C@H]1CO[C@H]2OCC(F)(F)[C@H]21)S(=O)(=O)c1ccc(N)cc1 [GRL-05010] | HIV-1LAI | Selectivity Index | 12,333
COC(=O)N[C@H](C(=O)N[C@@H](Cc1ccccc1)[C@@H](O)CN(Cc1ccc(-c2ccccn2)cc1)NC(=O)[C@@H](NC(=O)OC)C(C)(C)C)C(C)(C)C [ATV, Atazanavir] | HIV-1LAI | Selectivity Index | 5,720

Data provenance is patent US9346820B2.
